This collection of values is drawn from ChEMBL document CHEMBL3739383.

PROTOCOL SUMMARY: Inhibition of EV71 protease 3C using Dabcyl-KTSAVLQSGFRKME-Edans as substrate by fluorescence analysis
Parameters: species or system Enterovirus A71
OUTCOME MEASURE: pIC50
// pIC50 here means minus log10 of the molar concentration (mol/L)

Query block: For CCOC(=O)/C=C/[C@H](C[C@@H]1CCNC1=O)NC(=O)[C@@H](CC(=O)[C@@H](NC(=O)c1cc(C)on1)C(C)C)Cc1ccc(F)cc1 , what is its reported pIC50?
Result block: 5.64

---

PROTOCOL SUMMARY: Toxicity in iv dosed mouse measured for 24 hrs
Format: organism-based
RUN PARAMETERS: in vivo
OUTCOME MEASURE: LD50 at 24 h (mg/kg)
Output spec: scalar in mg/kg, unitless text.

Query block: For Cc1cc(C(=O)N[C@@H](Cc2ccc(F)cc2)C(=O)N[C@@H](C[C@@H]2CCCNC2=O)[C@@H](O)C#N)no1 , what is its reported LD50 at 24 h?
Result block: 96.5
